Quick list: Plate 2 (% conversion) per entry.
tested_target: His6-AspH315–758 (human aspartate/asparagine-β-hydroxylase, AspH) (Homo sapiens, UniProt Q12797)
Construct: N-Terminally His6-tagged human AspH315–758 (His6-AspH315–758) was produced in E. coli BL21 (DE3) cells; made in house; host or cells: E. coli BL21 (DE3), pET-28a(+) vector
Sequence (Q12797 315-758): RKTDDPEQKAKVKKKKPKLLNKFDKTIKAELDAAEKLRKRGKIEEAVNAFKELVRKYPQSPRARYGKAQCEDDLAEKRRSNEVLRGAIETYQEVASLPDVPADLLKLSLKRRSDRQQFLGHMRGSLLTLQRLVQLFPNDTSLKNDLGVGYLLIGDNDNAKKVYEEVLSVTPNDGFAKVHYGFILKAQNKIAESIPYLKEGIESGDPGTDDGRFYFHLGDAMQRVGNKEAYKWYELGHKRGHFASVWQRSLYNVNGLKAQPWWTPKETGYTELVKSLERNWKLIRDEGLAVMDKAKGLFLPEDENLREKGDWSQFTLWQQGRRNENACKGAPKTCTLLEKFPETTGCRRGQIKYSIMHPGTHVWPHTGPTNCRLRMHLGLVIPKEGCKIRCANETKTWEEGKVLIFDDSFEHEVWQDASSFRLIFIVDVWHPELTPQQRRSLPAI
test_description: SPE-MS AspH inhibition assay (LOPAC screen at fixed 20 μM and IC50 dose-response), hydroxylation of cyclic peptide hFX-CP101–119
Format: biochemical
measurement_context: LOPAC compound at 20uM, plate 2; conversion of substrate peptide
Where a name gives a salt, the structure may show the parent alone.
reported_metric: Plate 2 (% conversion) (%)

compound=Cc1nc2c([nH]1)c(=O)n(C)c(=O)n2Cc1ccco1 reported_metric="Plate 2 (% conversion)" reported=36.33
compound="CN(C)C(=O)N=NC(=O)N(C)C [N,N,N,N-Tetramethylazodicarboxamide]" reported_metric="Plate 2 (% conversion)" reported=38.74
compound="Oc1cc2c(cc1O)CN(C(=S)NCCc1ccc(Cl)cc1)CCC2 [Capsazepine, capsazepine, reference compound]" reported_metric="Plate 2 (% conversion)" reported=2.59
compound="CCCCC1(C2CCCC2)Cc2cc(OCC(=O)O)c(Cl)c(Cl)c2C1=O (stereo in doubt) [R(+)-Butylindazone]" reported_metric="Plate 2 (% conversion)" reported=33.18
compound=O=C(O)CN(CCOCCOCCN(CC(=O)O)CC(=O)O)CC(=O)O reported_metric="Plate 2 (% conversion)" reported=38.29
compound="CS(=O)(=O)O.Cc1c(O)cccc1C(=O)N[C@@H](CSc1ccccc1)[C@H](O)CN1C[C@H]2CCCC[C@H]2C[C@H]1C(=O)NC(C)(C)C.O [Nelfinavir mesylate hydrate]" reported_metric="Plate 2 (% conversion)" reported=32.94
compound="COc1cc(C(=O)OCCCN2CCCN(CCCOC(=O)c3cc(OC)c(OC)c(OC)c3)CC2)cc(OC)c1OC [Dilazep hydrochloride]" reported_metric="Plate 2 (% conversion)" reported=41.49
compound="CCc1cccc2c3c([nH]c12)C(CC)(CC(=O)O)OCC3 (stereo not drawn)" reported_metric="Plate 2 (% conversion)" reported=36.91
compound="COc1cc(C(O)C(=O)O)ccc1O (racemic) [(±)-Vanillylmandelic acid]" reported_metric="Plate 2 (% conversion)" reported=32.67
compound=Nc1ncnc2c1ncn2[C@@H]1O[C@H](COP(=O)(O)OP(=O)(O)OP(=O)(O)OP(=O)(O)OC[C@H]2O[C@@H](n3cnc4c(N)ncnc43)[C@H](O)[C@@H]2O)[C@@H](O)[C@H]1O reported_metric="Plate 2 (% conversion)" reported=27.58
compound="Br.C=CCN1CCc2c(cc(O)c(O)c2Cl)C(c2ccccc2)C1 (racemic) [(±)-Chloro-APB hydrobromide, reference compound]" reported_metric="Plate 2 (% conversion)" reported=3.87
compound=O=C(O)CCc1ccc(NCc2cccc(Oc3ccccc3)c2)cc1 reported_metric="Plate 2 (% conversion)" reported=35.17
compound="N=C(N)N/N=C/c1c(Cl)cccc1Cl [Guanabenz acetate]" reported_metric="Plate 2 (% conversion)" reported=34.67
compound=O=C(c1ccc(Cl)cc1)N1CCN(c2ccc([N+](=O)[O-])c3ncccc23)CC1 reported_metric="Plate 2 (% conversion)" reported=35.99
compound="CCCCCCCCCCCCCCC[C@H](O)[C@H](N)CO (racemic) [DL-erythro-Dihydrosphingosine]" reported_metric="Plate 2 (% conversion)" reported=62.82
compound=CCNC(=O)[C@H]1O[C@@H](n2cnc3c(N)ncnc32)[C@H](O)[C@@H]1O reported_metric="Plate 2 (% conversion)" reported=35.71
compound=O=c1c(-c2ccc(O)cc2)coc2cc(O)cc(O)c12 reported_metric="Plate 2 (% conversion)" reported=19.78
compound=Cc1nn(-c2ccccc2)c(C)c1/C=N/N1CCN(Cc2ccccc2)CC1 reported_metric="Plate 2 (% conversion)" reported=42.39
compound="OC(CN1CCC(Cc2ccc(F)cc2)CC1)c1ccc(Cl)cc1 (stereo not drawn)" reported_metric="Plate 2 (% conversion)" reported=39.73
compound="Cl.N[C@@H](CCC(=O)O)C(=O)O [L-Glutamic acid hydrochloride]" reported_metric="Plate 2 (% conversion)" reported=29.01
compound="O=C(O)CN(CCN(CC(=O)O)CC(=O)O)CCN(CC(=O)O)CC(=O)O [Diethylenetriaminepentaacetic acid, reference compound]" reported_metric="Plate 2 (% conversion)" reported=2.39
compound="CC(C)C[C@H](NC(=O)[C@H](O)[C@H](N)Cc1ccccc1)C(=O)O [Epibestatin hydrochloride]" reported_metric="Plate 2 (% conversion)" reported=35.33
compound=O=C1NC(=O)C(c2ccccc2)(c2ccccc2)N1 reported_metric="Plate 2 (% conversion)" reported=35.84
compound=O=C1CCC(c2ccc(-n3ccnc3)cc2)=NN1 reported_metric="Plate 2 (% conversion)" reported=38.21
compound="CNS(=O)(=O)CCc1ccc2[nH]cc(C3CCN(C)CC3)c2c1 [Naratriptan hydrochloride]" reported_metric="Plate 2 (% conversion)" reported=39.49
compound="O=C([O-])c1cc2cc(Cc3cccnc3)ccc2o1.[Na+] [Furegrelate sodium]" reported_metric="Plate 2 (% conversion)" reported=36.88
compound=CCn1c(=O)[nH]c2cc(Cl)c(Cl)cc21 reported_metric="Plate 2 (% conversion)" reported=39.27
compound=OC[C@H]1NC[C@@H](O)[C@@H]1O reported_metric="Plate 2 (% conversion)" reported=35.43
compound="Br.Br.CN(C)CCCc1cc(C(=O)Nc2ccc(-c3ccncc3)cc2)ccc1O [GR 55562 dihydrobromide]" reported_metric="Plate 2 (% conversion)" reported=31.31
compound="CC(C)C(N)C(=O)OCC(CO)OCn1cnc2c(=O)[nH]c(N)nc21.Cl.O (stereo not drawn) [Valganciclovir hydrochloride hydrate]" reported_metric="Plate 2 (% conversion)" reported=38.77
